Target: cAMP-dependent protein kinase catalytic subunit alpha (Homo sapiens)
Experiment: Inhibition of ARC-1063 fluorescent probe binding to recombinant human PKAC-alpha incubated for 1 hr by time-gated luminescence intensity based displacement assay
VALUE_KIND: IC50 (nM)

(P) CC[C@H](C)[C@H](NC(=O)CCC(=O)N[C@@H](CCCCNC(=O)[C@@H](CCCNC(=N)N)NC(=O)CCCCCCCC(=O)N1CCN(c2ncnc3[nH]ccc23)CC1)C(=O)N[C@H](CCCNC(=N)N)C(N)=O)C(=O)NCC(=O)CF
(Q) N=C(N)NCCC[C@@H](NC(=O)CCCCCNC(=O)[C@@H](CCCNC(=N)N)NC(=O)CCCCCCCC(=O)N1CCN(c2ncnc3[nH]ccc23)CC1)C(N)=O
(R) CC[C@H](C)[C@H](NC(=O)CCC(=O)N[C@@H](CCCCNC(=O)[C@@H](CCCNC(=N)N)NC(=O)CCCCCCCC(=O)N1CCN(c2ncnc3[nH]ccc23)CC1)C(=O)N[C@H](CCCNC(=N)N)C(=O)N[C@H](CCCNC(=N)N)C(N)=O)C(=O)NCC(C)=O
Input line: Hey, quick one: sort these by IC50, largest value first please. Dear reader, please state the labels in the requested order.
Output line: P, Q, R
(P: 1200 nM, Q: 400 nM, R: 24 nM)

Reference for the values: ChEMBL document CHEMBL5137094
